- testMethodNotes: The drug is tested on Edwardsiella tarda strain: ATCC23685 for biotransformation. The drug concentrations were measured before and after a 12-h incubation by liquid-chromatography-coupled mass spectrometry (LC–MS)
- runConditions: 2 µM
quantityMeasured: Bacterial Biotransformation

q: Fill in reported Bacterial Biotransformation for this entry: "C#C[C@]1(O)CC[C@H]2[C@@H]3CCC4=CC(=O)CC[C@@H]4[C@H]3CC[C@@]21CC"
a: Compound NOT metabolized

q: Given CCCc1nn(C)c2c(=O)[nH]c(-c3cc(S(=O)(=O)N4CCN(C)CC4)ccc3OCC)nc12.O=C(O)CC(O)(CC(=O)O)C(=O)O [SILDENAFIL CITRATE] , respond with its Bacterial Biotransformation.
a: Compound NOT metabolized

q: # return recorded Bacterial Biotransformation for entry O=C(Nc1ccccc1)OCC(CN1CCCCC1)OC(=O)Nc1ccccc1 (centres undefined)
a: Compound NOT metabolized

q: Give the value of Bacterial Biotransformation reported for the following: CCCC(=O)Nc1ccc(OCC(O)CNC(C)C)c(C(C)=O)c1 (centres undefined)
a: Compound NOT metabolized

---

- testMethodNotes: The drug is tested on Clostridium sporogenes strain: ATCC15579 for biotransformation. The drug concentrations were measured before and after a 12-h incubation by liquid-chromatography-coupled mass spectrometry (LC–MS)
- runConditions: 2 µM
quantityMeasured: Bacterial Biotransformation

q: Please give measured Bacterial Biotransformation of the following entry: O=C(O)CCC(=O)O.O=C(O[C@H]1CN2CCC1CC2)N1CCc2ccccc2[C@@H]1c1ccccc1 [SOLIFENACIN SUCCINATE]
a: Compound NOT metabolized

q: Annotate the molecule Cc1ccccc1C(OCCN(C)C)c1ccccc1.O=C(O)CC(O)(CC(=O)O)C(=O)O (centres undefined) [ORPHENADRINE CITRATE] with its measured Bacterial Biotransformation.
a: Compound NOT metabolized

q: Read off the recorded Bacterial Biotransformation for NC(CO)(CO)CO.O=C(c1ccccc1)c1ccc2n1CCC2C(=O)O (centres undefined) [KETOROLAC TROMETHAMINE]
a: Compound NOT metabolized

---

- testMethodNotes: The drug is tested on the gut metagenome community of MV07 with ENA study accession number: PRJEB31790 and ENA sample accession number: SAMEA5537488 for biotransformation. The drug concentrations were measured over 9 timepoints collected between 0 and 24 hours of incubation by liquid-chromatography-coupled mass spectrometry (LC–MS)
- Assay type: ADME
- Parameters: dose 2 uM, timepoint 0, 1, 2, 4, 6, 8, 12, 18, 24 hours
- runConditions: 2 µM
quantityMeasured: Bacterial Biotransformation

q: Give a short answer stating reported Bacterial Biotransformation for COc1ccc([C@@H]2Sc3ccccc3N(CCN(C)C)C(=O)[C@@H]2OC(C)=O)cc1 [DILTIAZEM] .
a: Compound NOT metabolized

q: Supply Bacterial Biotransformation value. Item: CC(=O)OCC(CCn1cnc2cnc(N)nc21)COC(C)=O [FAMCICLOVIR]
a: Compound metabolized

q: Give the reported value of Bacterial Biotransformation for this record: C#C[C@]1(OC(C)=O)CC[C@H]2[C@@H]3CCC4=CC(=O)CC[C@@H]4[C@H]3CC[C@@]21C [NORETHINDRONE ACETATE]
a: Compound metabolized

q: Please report Bacterial Biotransformation for the following compound: C[C@@H]1C[C@H]2[C@@H]3CCC4=CC(=O)C=C[C@]4(C)[C@@]3(F)[C@@H](O)C[C@]2(C)[C@@]1(O)C(=O)CO [DEXAMETHASONE]
a: Compound NOT metabolized
